Target under test: T1, Human BCMA (human, UniProt Q02223 1-54, limits assumed)
T1 construct: Soluble analyte in SPR; construct not described; also called huBCMA; B-cell maturation antigen
T1 sequence (looked up): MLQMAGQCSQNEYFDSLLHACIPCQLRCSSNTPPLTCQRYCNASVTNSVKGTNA
Measurement notes: SPR, IgG immobilised, 37 C
Experimental: All experiments were performed on a Bio-Rad Proteon XPR36 surface Plasmon resonance biosensor (Bio-Rad, Hercules, Calif.). […] The analysis temperature for the immobilization was 25° C. and the running buffer was HBS-T+(10 mM HEPES, 150 mM NaCl, 0.05% Tween-20, pH 7.4). […] The analysis temperature for the BCMA binding analysis was 37° C. or 25° C. in a running buffer of HBS-T+, supplemented with 1 mg/mL BSA. […] Immediately after the 50 nM BCMA injection, dissociation was monitored for 2 hours. […]
Here, each record is paired with measured kon data.
Please state the figure in M⁻¹ s⁻¹; there is no need to write the unit.

# Binder, Measurement name, Experimental value
measured = [
    ("L3.PY/L3.KY/H3.TAQ (antibody, V domains shown, IgG) VH: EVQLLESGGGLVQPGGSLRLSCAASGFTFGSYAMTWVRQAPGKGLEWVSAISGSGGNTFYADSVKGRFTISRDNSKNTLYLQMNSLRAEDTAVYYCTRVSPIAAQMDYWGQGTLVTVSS VL: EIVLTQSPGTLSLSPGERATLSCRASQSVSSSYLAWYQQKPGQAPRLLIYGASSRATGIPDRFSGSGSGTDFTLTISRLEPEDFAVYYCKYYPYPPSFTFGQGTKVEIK", "kon", "2.79e+06"),
]

--- query ---
Which kon is reported for this binder? L3.PY/H2.YQ (antibody, V domains shown, IgG) VH: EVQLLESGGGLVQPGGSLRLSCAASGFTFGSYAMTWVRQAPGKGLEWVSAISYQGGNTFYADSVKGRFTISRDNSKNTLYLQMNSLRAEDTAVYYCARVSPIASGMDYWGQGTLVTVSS VL: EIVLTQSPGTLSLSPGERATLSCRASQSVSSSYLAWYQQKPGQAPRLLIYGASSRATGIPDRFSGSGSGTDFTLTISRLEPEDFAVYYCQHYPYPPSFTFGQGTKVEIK
2.58e+06
